- Test system: barnyardgrass (Echinochloa crus-galli)
- EXPERIMENT SUMMARY: Test A postemergence, barnyardgrass
- Type: in vivo
- CONDITION DESCRIPTION: 500 g ai/ha, visual injury, 0 to 100 scale (0 no effect, 100 complete control), approximately 10 days
Catalogue of compounds with associated Plant response rating, Barnyardgrass

{"COMPOUND": "CN(C)N=Cc1cccc(C2CN(C)C(=O)C2C(=O)Nc2ccccc2F)c1 (stereo not drawn)", "Plant response rating, Barnyardgrass": 30}
{"COMPOUND": "CN1CC(c2cccc(Oc3ncc(F)cn3)c2)C(C(=O)Nc2ccccc2F)C1=O (single isomer, unassigned)", "Plant response rating, Barnyardgrass": 90}
{"COMPOUND": "CN1CC(c2cccc(Oc3ccc(F)cc3)c2)C(C(=O)Nc2cccc(F)c2F)C1=O (single isomer, unassigned)", "Plant response rating, Barnyardgrass": 90}
{"COMPOUND": "O=C1NCC(c2cccc(OCC3CC3)c2)C1C(=O)Nc1ccccc1Cl (stereo not drawn)", "Plant response rating, Barnyardgrass": 80}
{"COMPOUND": "O=C1NCC(c2cccc(Oc3ncc(F)cn3)c2)C1C(=O)Nc1cccc(F)c1F (single isomer, unassigned)", "Plant response rating, Barnyardgrass": 100}
{"COMPOUND": "CN1CC(c2cccc(Oc3ccc(F)cc3)c2)C(C(=O)Nc2ccccc2F)C1=O (single isomer, unassigned)", "Plant response rating, Barnyardgrass": 90}
{"COMPOUND": "O=C1NCC(c2cccc(Cn3cccn3)c2)C1C(=O)Nc1cccc(F)c1F (stereo not drawn)", "Plant response rating, Barnyardgrass": 60}
{"COMPOUND": "CC1(COc2cccc(C3CNC(=O)C3C(=O)Nc3ccccc3C(F)(F)F)c2)COC1 (stereo not drawn)", "Plant response rating, Barnyardgrass": 0}
{"COMPOUND": "O=C1NCC(c2cccc(OCc3ccccc3)c2)C1C(=O)Nc1ccc(F)cc1F (stereo not drawn)", "Plant response rating, Barnyardgrass": 0}

* * *

- Tested on: barnyardgrass (Echinochloa crus-galli)
- EXPERIMENT SUMMARY: Test A preemergence, barnyardgrass
- Format: in vivo
- CONDITION DESCRIPTION: 500 g ai/ha, 0 to 100 scale (0 no effect, 100 complete control)
Catalogue of compounds with associated Plant response rating, Barnyardgrass
MEASUREMENT KIND: Plant response rating, Barnyardgrass

{"COMPOUND": "CC1(COc2cccc(C3CNC(=O)C3C(=O)Nc3ccccc3C(F)(F)F)c2)COC1 (stereo not shown) [Compound 15]", "MEASURED TARGET": "barnyardgrass (Echinochloa crus-galli)", "REPORTED RESULT": 60}
{"COMPOUND": "CN1CC(c2cccc(OC(F)(F)C(F)OC(F)(F)F)c2)C(C(=O)Nc2ccccc2F)C1=O (stereo not shown) [Compound 41]", "MEASURED TARGET": "barnyardgrass (Echinochloa crus-galli)", "REPORTED RESULT": 90}
{"COMPOUND": "CN1CC(c2cccc(Oc3ncc(F)cn3)c2)C(C(=O)Nc2ccccc2F)C1=O (single isomer, unassigned) [Compound 36]", "MEASURED TARGET": "barnyardgrass (Echinochloa crus-galli)", "REPORTED RESULT": 90}
{"COMPOUND": "CC1(COc2cccc(C3CNC(=O)C3C(=O)Nc3ccccc3F)c2)COC1 (stereo not shown) [Compound 14]", "MEASURED TARGET": "barnyardgrass (Echinochloa crus-galli)", "REPORTED RESULT": 80}
{"COMPOUND": "O=C1NCC(c2cccc(Oc3ncc(Cl)cn3)c2)C1C(=O)Nc1cccc(F)c1F (stereo not shown) [Compound 56]", "MEASURED TARGET": "barnyardgrass (Echinochloa crus-galli)", "REPORTED RESULT": 70}
{"COMPOUND": "O=C1NCC(c2cccc(OCc3ccccc3)c2)C1C(=O)Nc1ccccc1Cl (stereo not shown) [Compound 67]", "MEASURED TARGET": "barnyardgrass (Echinochloa crus-galli)", "REPORTED RESULT": 0}
{"COMPOUND": "O=C1NCC(c2cccc(Cn3cccn3)c2)C1C(=O)Nc1ccccc1F (stereo not shown) [Compound 27]", "MEASURED TARGET": "barnyardgrass (Echinochloa crus-galli)", "REPORTED RESULT": 20}
{"COMPOUND": "O=C1NCC(c2cccc(Cn3ccc(C(F)(F)F)n3)c2)C1C(=O)Nc1ccc(F)c(F)c1F (stereo not shown) [Compound 22]", "MEASURED TARGET": "barnyardgrass (Echinochloa crus-galli)", "REPORTED RESULT": 30}
{"COMPOUND": "O=C1NCC(c2cccc(Oc3ccccn3)c2)C1C(=O)Nc1ccccc1Cl (stereo not shown) [Compound 69]", "MEASURED TARGET": "barnyardgrass (Echinochloa crus-galli)", "REPORTED RESULT": 0}
{"COMPOUND": "O=C1NCC(c2cccc(Oc3ccc(C(F)(F)F)cn3)c2)C1C(=O)Nc1ccccc1F (single isomer, unassigned) [Compound 62]", "MEASURED TARGET": "barnyardgrass (Echinochloa crus-galli)", "REPORTED RESULT": 90}
{"COMPOUND": "O=C1NCC(c2cccc(OCc3ccccc3)c2)C1C(=O)Nc1ccccc1F (stereo not shown) [Compound 63]", "MEASURED TARGET": "barnyardgrass (Echinochloa crus-galli)", "REPORTED RESULT": 0}
{"COMPOUND": "O=C1NCC(c2cccc(OCC3CC3)c2)C1C(=O)Nc1ccc(F)cc1F (stereo not shown) [Compound 3]", "MEASURED TARGET": "barnyardgrass (Echinochloa crus-galli)", "REPORTED RESULT": 70}
{"COMPOUND": "CN(C)N=Cc1cccc(C2CN(C)C(=O)C2C(=O)Nc2ccccc2F)c1 (stereo not shown) [Compound 54]", "MEASURED TARGET": "barnyardgrass (Echinochloa crus-galli)", "REPORTED RESULT": 20}
{"COMPOUND": "CN1CC(c2cccc(Oc3ccc(F)cc3)c2)C(C(=O)Nc2ccccc2F)C1=O (single isomer, unassigned) [Compound 45]", "MEASURED TARGET": "barnyardgrass (Echinochloa crus-galli)", "REPORTED RESULT": 80}
{"COMPOUND": "O=C1NCC(c2cccc(Oc3ccc(C(F)(F)F)cn3)c2)C1C(=O)Nc1cccc(F)c1F (single isomer, unassigned) [Compound 47]", "MEASURED TARGET": "barnyardgrass (Echinochloa crus-galli)", "REPORTED RESULT": 80}
{"COMPOUND": "O=C1NCC(c2cccc(OCc3ccco3)c2)C1C(=O)Nc1ccccc1Cl (stereo not shown) [Compound 1]", "MEASURED TARGET": "barnyardgrass (Echinochloa crus-galli)", "REPORTED RESULT": 0}

* * *

- Test system: barnyardgrass (Echinochloa crus-galli)
- EXPERIMENT SUMMARY: Test A preemergence, barnyardgrass
- Type: in vivo
- CONDITION DESCRIPTION: 500 g ai/ha, 0 to 100 scale (0 no effect, 100 complete control)
MEASUREMENT KIND: Plant response rating, Barnyardgrass

{"MOLECULE": "O=C1NCC(c2cccc(OCc3ccco3)c2)C1C(=O)Nc1ccccc1F (stereo not shown)", "MEASUREMENT KIND": "Plant response rating, Barnyardgrass", "REPORTED RESULT": 0}
{"MOLECULE": "O=C1NCC(c2cccc(Oc3ncc(F)cn3)c2)C1C(=O)Nc1cccc(F)c1F (single isomer, unassigned)", "MEASUREMENT KIND": "Plant response rating, Barnyardgrass", "REPORTED RESULT": 90}
{"MOLECULE": "O=C1NCC(c2cccc(Cn3cncn3)c2)C1C(=O)Nc1ccccc1F (stereo not shown)", "MEASUREMENT KIND": "Plant response rating, Barnyardgrass", "REPORTED RESULT": 0}
{"MOLECULE": "CN1CC(c2cccc(OC(F)(F)C(F)OC(F)(F)F)c2)C(C(=O)Nc2cccc(F)c2F)C1=O (stereo not shown)", "MEASUREMENT KIND": "Plant response rating, Barnyardgrass", "REPORTED RESULT": 90}
{"MOLECULE": "CN1CC(c2cccc(Oc3ncc(F)cn3)c2)C(C(=O)Nc2cccc(F)c2F)C1=O (single isomer, unassigned)", "MEASUREMENT KIND": "Plant response rating, Barnyardgrass", "REPORTED RESULT": 100}
{"MOLECULE": "CN1CC(c2cccc(Oc3ccc(F)cn3)c2)C(C(=O)Nc2ccccc2F)C1=O (single isomer, unassigned)", "MEASUREMENT KIND": "Plant response rating, Barnyardgrass", "REPORTED RESULT": 90}
{"MOLECULE": "O=C1NCC(c2cccc(COc3ccccc3)c2)C1C(=O)Nc1ccccc1F (stereo not shown)", "MEASUREMENT KIND": "Plant response rating, Barnyardgrass", "REPORTED RESULT": 70}
{"MOLECULE": "O=C1NCC(c2ccccc2Cn2ccc(C(F)(F)F)n2)C1C(=O)Nc1cccc(F)c1F (stereo not shown)", "MEASUREMENT KIND": "Plant response rating, Barnyardgrass", "REPORTED RESULT": 90}
{"MOLECULE": "O=C1NCC(c2cccc(OCC3CC3)c2)C1C(=O)Nc1cccc(F)c1F (stereo not shown)", "MEASUREMENT KIND": "Plant response rating, Barnyardgrass", "REPORTED RESULT": 90}
{"MOLECULE": "CN1CC(c2cccc(Sc3ccccc3)c2)C(C(=O)Nc2ccccc2F)C1=O (single isomer, unassigned)", "MEASUREMENT KIND": "Plant response rating, Barnyardgrass", "REPORTED RESULT": 40}
{"MOLECULE": "O=C1NCC(c2cccc(OCc3ccccc3)c2)C1C(=O)Nc1cccc(F)c1F (stereo not shown)", "MEASUREMENT KIND": "Plant response rating, Barnyardgrass", "REPORTED RESULT": 0}
{"MOLECULE": "O=C1NCC(c2cccc(OCC3OCCO3)c2)C1C(=O)Nc1ccccc1F (stereo not shown)", "MEASUREMENT KIND": "Plant response rating, Barnyardgrass", "REPORTED RESULT": 80}
{"MOLECULE": "O=C1NCC(c2cccc(OCC3CC3)c2)C1C(=O)Nc1ccccc1Cl (stereo not shown)", "MEASUREMENT KIND": "Plant response rating, Barnyardgrass", "REPORTED RESULT": 90}
{"MOLECULE": "O=C1NCC(c2ccccc2Cn2ccc(C(F)(F)F)n2)C1C(=O)Nc1ccccc1F (stereo not shown)", "MEASUREMENT KIND": "Plant response rating, Barnyardgrass", "REPORTED RESULT": 40}
{"MOLECULE": "O=C1NCC(c2cccc(Oc3ccccn3)c2)C1C(=O)Nc1ccccc1F (stereo not shown)", "MEASUREMENT KIND": "Plant response rating, Barnyardgrass", "REPORTED RESULT": 90}
{"MOLECULE": "O=C1NCC(c2cccc(OCC3OCCO3)c2)C1C(=O)Nc1ccccc1Cl (stereo not shown)", "MEASUREMENT KIND": "Plant response rating, Barnyardgrass", "REPORTED RESULT": 80}
